Provenance of the data: ChEMBL document CHEMBL1961873

Molecular target: Tyrosine-protein kinase Lck (Homo sapiens) (UniProt P06239);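 note: reported Lck percent inhibition is a mean value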
Sequence (P06239 2-509 limits assumed): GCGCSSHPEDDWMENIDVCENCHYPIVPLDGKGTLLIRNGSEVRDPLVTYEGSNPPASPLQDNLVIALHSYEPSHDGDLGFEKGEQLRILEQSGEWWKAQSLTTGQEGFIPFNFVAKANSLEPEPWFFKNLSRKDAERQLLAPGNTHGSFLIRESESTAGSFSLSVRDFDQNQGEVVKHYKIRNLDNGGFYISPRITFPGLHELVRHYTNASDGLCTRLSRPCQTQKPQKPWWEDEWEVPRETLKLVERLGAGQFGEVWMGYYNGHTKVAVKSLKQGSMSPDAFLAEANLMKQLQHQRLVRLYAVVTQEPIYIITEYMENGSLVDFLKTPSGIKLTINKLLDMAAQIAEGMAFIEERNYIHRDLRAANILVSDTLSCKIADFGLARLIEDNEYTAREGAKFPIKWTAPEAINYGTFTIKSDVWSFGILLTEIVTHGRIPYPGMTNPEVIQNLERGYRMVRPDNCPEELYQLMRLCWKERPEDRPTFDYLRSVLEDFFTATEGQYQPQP
Settings: at 1 µM
Output yes (1) for inhibition not less than 6%; output no (0) otherwise.

Enquiry: Please check the record `Nc1ncc(-c2cccc(S(N)(=O)=O)c2)c2scc(-c3ccc(F)c(Cl)c3)c12` and state if its inhibition is at or above 6%.
Return: yes (1)

Enquiry: Say whether `c1ccc(COc2ccc(Nc3ncnc4ccc(-c5ccco5)cc34)cc2)cc1` shows inhibition of 6% or more.
Return: no (0)

Enquiry: Check if inhibition >= 6% (inclusive). Item: `COc1ccc(-c2oc3ncnc(N)c3c2-c2ccc(NC(=O)Nc3cc(C(F)(F)F)ccc3F)cc2)cc1`
Return: yes (1)

Enquiry: Determine whether measured inhibition meets or exceeds 6% for `CC(C)COC(=O)c1ccc2c(c1)/C(=C/Nc1ccc(S(N)(=O)=O)cc1)C(=O)N2`
Return: yes (1)

Enquiry: Dear colleague, could you confirm whether `N#Cc1c(NC(=O)CN2CCOCC2)sc2c1CCCC2` has inhibition at or above 6%?
Return: no (0)

Enquiry: Tell me whether inhibition is at least 6% here: `CCc1nn2ncccc2c1-c1ccnc(NC2CC2)n1`
Return: yes (1)

Enquiry: # check: inhibition of `c1cc(-c2cnn3nc(N4CCOCC4)ccc23)nc(NC2CC2)n1` is greater than or equal to 6%
Return: no (0)

Enquiry: Is inhibition for `COC(=O)c1sc(-n2cnc3cc(OC)c(OC)cc32)cc1OCc1ccccc1C(F)(F)F` at or above 6%?
Return: yes (1)

Enquiry: Tell me whether inhibition is at least 6% here: `CNC(=O)c1cc(-c2ccc(F)cc2)cc(-c2ccc(S(=O)(=O)N3CCCC3)cc2)c1N`
Return: no (0)

Enquiry: Is reported inhibition greater than or equal to 6% here: `O=S(=O)(CCNCc1ccc(-c2ccc3ncnc(Nc4ccc(OCc5cccc(F)c5)c(Cl)c4)c3c2)o1)c1ccccc1`
Return: yes (1)

Enquiry: Could you verify whether the entry `Nc1nc(-c2cccc(Cl)c2)c(-c2ccc3ncccc3n2)s1` shows inhibition of no less than 6%?
Return: yes (1)

Enquiry: Record `Fc1cccc(COc2ccc(Nc3ncnc4sc(-c5ccco5)cc34)cc2Cl)c1` ; criterion: inhibition no lower than 6%. Met?
Return: no (0)

Enquiry: Could you please find out whether `c1ccc(-c2nc3n(c2-c2ccc4c(c2)OCO4)CCC3)nc1` has inhibition that meets 6% or exceeds it?
Return: no (0)

Enquiry: Quick check, inhibition >= 6%? `COC(=O)Nc1nc2ccc(Oc3ccc(NC(=O)Nc4cccc(Cl)c4)cc3)cc2[nH]1`
Return: yes (1)

Enquiry: Hi team, for `Nc1nc(-c2ccc(F)cc2)c(-c2ccc3ncccc3n2)s1` , is the recorded inhibition at or above 6%?
Return: yes (1)

Enquiry: Is it the case that `CNC(=O)c1cccc(C#Cc2cncnc2Nc2ccc(OCc3cccc(F)c3)c(Cl)c2)c1` has inhibition reaching or exceeding 6%?
Return: no (0)

---

Target: Tyrosine-protein kinase TXK (Homo sapiens) (UniProt P42681);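 note: value given is the mean percent inhibition of TXK kinase activity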
Sequence (P42681 whole entry): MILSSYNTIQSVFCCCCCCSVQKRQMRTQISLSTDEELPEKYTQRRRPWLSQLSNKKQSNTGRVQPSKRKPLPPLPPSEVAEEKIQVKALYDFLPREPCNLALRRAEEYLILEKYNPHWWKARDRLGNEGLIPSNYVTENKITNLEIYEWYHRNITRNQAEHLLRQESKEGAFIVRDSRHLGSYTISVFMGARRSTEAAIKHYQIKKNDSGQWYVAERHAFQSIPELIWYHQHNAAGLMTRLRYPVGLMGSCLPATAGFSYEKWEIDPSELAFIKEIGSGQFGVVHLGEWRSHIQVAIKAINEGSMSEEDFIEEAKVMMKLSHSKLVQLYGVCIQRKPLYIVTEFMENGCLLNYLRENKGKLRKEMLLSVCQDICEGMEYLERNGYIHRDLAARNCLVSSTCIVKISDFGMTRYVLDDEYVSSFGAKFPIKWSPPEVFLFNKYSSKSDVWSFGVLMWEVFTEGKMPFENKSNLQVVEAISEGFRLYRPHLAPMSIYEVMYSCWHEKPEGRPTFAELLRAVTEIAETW
Details: at 1 µM
Criterion: inhibition meeting or surpassing 4%. Met: YES. Not met: NO.

Enquiry: Can `CS(=O)(=O)CCNCc1coc(-c2ccc3ncnc(Nc4ccc(OCc5ccccc5)cc4)c3c2)c1` be said to have inhibition at or above 4%?
Return: NO

Enquiry: Item `CCN(CC)S(=O)(=O)c1ccc(OC)c(Nc2ncc(-c3ccccc3)o2)c1` with inhibition of 4% or above?
Return: YES

Enquiry: Textbook exercise: given the entry `c1ccc(-c2nc3n(c2-c2ccc4c(c2)OCO4)CCC3)nc1` , state whether its inhibition is greater than or equal to 4%.
Return: NO

Enquiry: Tell me whether inhibition is at least 4% here: `CNC(=O)c1cncc(/C=C/c2ccccc2Cl)c1`
Return: YES

Enquiry: # bool: inhibition of `CCn1c(-c2nonc2N)nc2ccccc21` >= 4%
Return: YES

Enquiry: Check the entry `c1ccc(COc2ccc(Nc3ncnc4ccc(-c5ccco5)cc34)cc2)cc1` : does inhibition equal or exceed 4%?
Return: NO

Enquiry: Textbook exercise: given the entry `N#Cc1c(NC(=O)c2ccc(F)cc2)sc2c1CCCC2` , state whether its inhibition is greater than or equal to 4%.
Return: NO

Enquiry: Kindly determine if inhibition recorded for `CCN1CCC(CC(=O)Nc2n[nH]c3nnc(-c4cccc(F)c4F)cc23)CC1` is above or exactly 4%.
Return: NO

Enquiry: Can `COc1ccc(-c2nn3ncccc3c2-c2ccnc(Nc3ccc4c(c3)OCCO4)n2)cc1` be said to have inhibition at or above 4%?
Return: NO

Enquiry: Hi team, for `Fc1ccc(-c2nn3ncccc3c2-c2ccnc(Nc3ccc4c(c3)OCCO4)n2)cc1` , is the recorded inhibition at or above 4%?
Return: YES

Enquiry: Entry `FC(F)(F)c1cccc(-c2nn3ncccc3c2-c2ccnc(Nc3ccc4c(c3)OCCO4)n2)c1` : is its inhibition no less than 4%?
Return: YES

Enquiry: Dear colleague, could you confirm whether `Clc1ccc(-c2nn3ncccc3c2-c2ccnc(Nc3ccccc3)n2)cc1` has inhibition at or above 4%?
Return: YES

Enquiry: Hello, I need to know if `Cc1ccc2c(-c3ccnc(Nc4ccccc4)n3)c(-c3ccc(F)cc3)nn2n1` has measured inhibition not below 4%. Thanks!
Return: YES

Enquiry: State whether the measured inhibition reaches 4%, counting equality as reaching it, for `CCn1c(-c2nonc2N)nc2c(C#CC(C)(C)O)nc(OC[C@H](N)c3ccccc3)cc21`
Return: NO

Enquiry: Decide: is the reported value of inhibition for `COc1cc(Nc2nccc(Nc3ccc4c(C)n[nH]c4c3)n2)cc(OC)c1OC` equal to or greater than 4%?
Return: YES

---

Provide the recorded inhibition for the entries that follow.
Molecular target: Insulin-like growth factor 1 receptor (Homo sapiens) (UniProt P08069)
Sequence (P08069 31-736 limits assumed): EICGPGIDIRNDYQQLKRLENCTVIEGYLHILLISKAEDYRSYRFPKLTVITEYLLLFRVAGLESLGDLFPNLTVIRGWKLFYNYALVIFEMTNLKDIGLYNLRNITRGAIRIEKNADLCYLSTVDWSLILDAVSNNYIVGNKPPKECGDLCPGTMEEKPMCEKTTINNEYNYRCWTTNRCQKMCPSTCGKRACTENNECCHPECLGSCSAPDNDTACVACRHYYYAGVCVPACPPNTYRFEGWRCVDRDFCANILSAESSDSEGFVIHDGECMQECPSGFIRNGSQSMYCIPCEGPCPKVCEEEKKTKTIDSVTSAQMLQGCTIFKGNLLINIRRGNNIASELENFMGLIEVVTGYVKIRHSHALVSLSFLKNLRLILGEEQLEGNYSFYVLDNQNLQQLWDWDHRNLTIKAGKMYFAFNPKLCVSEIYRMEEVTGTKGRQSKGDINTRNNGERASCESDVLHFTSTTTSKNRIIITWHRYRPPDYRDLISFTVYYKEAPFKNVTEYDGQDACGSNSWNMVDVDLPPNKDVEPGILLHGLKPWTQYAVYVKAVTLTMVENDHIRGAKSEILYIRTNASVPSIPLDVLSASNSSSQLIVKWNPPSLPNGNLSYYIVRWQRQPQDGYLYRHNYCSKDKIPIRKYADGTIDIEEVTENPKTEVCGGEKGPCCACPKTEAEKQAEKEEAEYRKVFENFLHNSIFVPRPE
Sequence (P08069 741-1367 limits assumed): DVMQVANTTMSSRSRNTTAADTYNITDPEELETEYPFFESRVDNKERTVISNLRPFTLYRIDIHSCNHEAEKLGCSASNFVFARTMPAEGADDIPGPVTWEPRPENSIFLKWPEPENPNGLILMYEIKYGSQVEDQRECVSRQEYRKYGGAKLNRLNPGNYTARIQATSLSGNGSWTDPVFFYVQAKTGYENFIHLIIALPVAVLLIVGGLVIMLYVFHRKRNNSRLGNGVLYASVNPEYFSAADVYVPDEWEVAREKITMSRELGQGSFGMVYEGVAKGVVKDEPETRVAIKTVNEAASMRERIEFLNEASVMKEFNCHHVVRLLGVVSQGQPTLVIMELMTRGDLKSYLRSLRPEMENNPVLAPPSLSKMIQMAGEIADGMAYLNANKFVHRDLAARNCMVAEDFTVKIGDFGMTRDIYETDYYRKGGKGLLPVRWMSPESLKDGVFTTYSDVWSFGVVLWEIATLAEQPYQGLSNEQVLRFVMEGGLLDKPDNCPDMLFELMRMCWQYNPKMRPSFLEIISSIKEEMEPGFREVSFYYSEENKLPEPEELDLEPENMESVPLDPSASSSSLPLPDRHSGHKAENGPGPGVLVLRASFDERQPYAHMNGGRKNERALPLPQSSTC
Settings: at 1 µM
Report the value in % with no unit label.

Enquiry: Hi! What's the reported inhibition for `CCn1cc(-c2ccnc3[nH]ccc23)c(-c2cccc(NC(=O)Nc3ccc(OCc4ccccc4)cc3)c2)n1` on Insulin-like growth factor 1 receptor (Homo sapiens) (UniProt P08069)?
Return: 0.41

Enquiry: Identify the measured inhibition of `CCn1c(-c2nonc2N)nc2ccccc21` for Insulin-like growth factor 1 receptor (Homo sapiens) (UniProt P08069).
Return: 6.36

Enquiry: Please provide the recorded inhibition for `Nc1nc(-c2cccc(Cl)c2)c(-c2ccc3ncccc3n2)s1` , tested on Insulin-like growth factor 1 receptor (Homo sapiens) (UniProt P08069).
Return: 2.56

Enquiry: Recorded inhibition for `CCn1c(-c2nonc2N)nc2cnc(Oc3cccc(NC(=O)c4ccc(N(C)C)cc4)c3)cc21` with Insulin-like growth factor 1 receptor (Homo sapiens) (UniProt P08069), please?
Return: 0.33

Enquiry: Item `CC(C)COC(=O)c1ccc2c(c1)/C(=C/Nc1ccc(S(N)(=O)=O)cc1)C(=O)N2` with Insulin-like growth factor 1 receptor (Homo sapiens) (UniProt P08069) - inhibition?
Return: 1.72

Enquiry: Quick check: inhibition on Insulin-like growth factor 1 receptor (Homo sapiens) (UniProt P08069), item `CS(=O)(=O)CCNCc1coc(-c2ccc3ncnc(Nc4ccc(OCc5ccccc5)cc4)c3c2)c1` ?
Return: 2.16

Enquiry: Notebook entry, Insulin-like growth factor 1 receptor (Homo sapiens) (UniProt P08069) assay: inhibition of `FC(F)(F)c1cccc(-c2nn3ncccc3c2-c2ccnc(Nc3ccc4c(c3)OCCO4)n2)c1` = ?
Return: 1.37

Enquiry: What inhibition appears in the records for this compound with Insulin-like growth factor 1 receptor (Homo sapiens) (UniProt P08069)? `COc1ccc(-c2nn3ncccc3c2-c2ccnc(Nc3ccc4c(c3)OCCO4)n2)cc1`
Return: 7.28

Enquiry: Identify the measured inhibition of `O=C(O[C@H]1CN[C@H](C#Cc2cc3ncnc(Nc4ccc(Cc5ccccc5)cc4)c3s2)C1)N1CCOCC1` for Insulin-like growth factor 1 receptor (Homo sapiens) (UniProt P08069).
Return: -1.17

Enquiry: Form field: inhibition recorded for `CS(=O)(=O)CCNCc1ccc(-c2ccc3ncnc(Nc4ccc(OCc5ccccc5)c(C(F)(F)F)c4)c3c2)o1` with Insulin-like growth factor 1 receptor (Homo sapiens) (UniProt P08069) (enter value)
Return: -0.18

Enquiry: Tell me reported inhibition for `CC(=O)Nc1cccc(C#Cc2cncnc2Nc2ccc(OCc3cccc(F)c3)c(Cl)c2)c1` , tested with Insulin-like growth factor 1 receptor (Homo sapiens) (UniProt P08069).
Return: 2.53

Enquiry: Short answer please: inhibition, Insulin-like growth factor 1 receptor (Homo sapiens) (UniProt P08069), entry `CCNC(=O)O[C@H]1CN[C@H](C#Cc2cc3ncnc(Nc4ccc(OCc5cccc(F)c5)c(Cl)c4)c3s2)C1`
Return: 2.91

Enquiry: What reported inhibition corresponds to `CCn1c(-c2nonc2N)nc2c(C#CC(C)(C)O)nc(OC[C@H](N)c3ccccc3)cc21` on Insulin-like growth factor 1 receptor (Homo sapiens) (UniProt P08069)?
Return: 2.6

Enquiry: Which measured inhibition belongs to `CNC(=O)c1cc(-c2ccc(F)cc2)cc(-c2ccc(S(=O)(=O)N3CCCC3)cc2)c1N` , tested on Insulin-like growth factor 1 receptor (Homo sapiens) (UniProt P08069)?
Return: 1.32

Enquiry: Reported inhibition for Insulin-like growth factor 1 receptor (Homo sapiens) (UniProt P08069), given `Fc1cccc(COc2ccc(Nc3ncnc4sc(-c5ccco5)cc34)cc2Cl)c1` ?
Return: 0.87

Enquiry: Kindly state the measured inhibition obtained for `COC(=O)c1sc(-n2cnc3cc(OC)c(OC)cc32)cc1OCc1ccccc1C(F)(F)F` with Insulin-like growth factor 1 receptor (Homo sapiens) (UniProt P08069).
Return: 0.25

Enquiry: Notebook entry, Insulin-like growth factor 1 receptor (Homo sapiens) (UniProt P08069) assay: inhibition of `COc1cc(N2CCN(C(C)C)CC2)ccc1Nc1nc(Nc2ccc(F)cc2C(N)=O)c2cc[nH]c2n1` = ?
Return: 101

Enquiry: Please state recorded inhibition (tested on Insulin-like growth factor 1 receptor (Homo sapiens) (UniProt P08069)) of `COC(=O)Nc1nc2ccc(S(=O)(=O)c3ccc(NC(=O)Nc4cc(C(F)(F)F)ccc4F)cc3)cc2[nH]1`
Return: 1.62

Enquiry: # get_value(readout= inhibition, system= Insulin-like growth factor 1 receptor (Homo sapiens) (UniProt P08069)) for `Nc1nc(-c2ccc(F)cc2)c(-c2ccc3ncccc3n2)s1`
Return: 24.4

Enquiry: Missing value: inhibition, Insulin-like growth factor 1 receptor (Homo sapiens) (UniProt P08069), entry `CNC(=O)c1cncc(/C=C/c2ccccc2Cl)c1` . Fill in?
Return: 5.76

Enquiry: For the record `CCOc1ccc2c(-c3ccnc(Nc4cccc(C(F)(F)F)c4)n3)cnn2n1` , what value of inhibition is listed for Insulin-like growth factor 1 receptor (Homo sapiens) (UniProt P08069)?
Return: 1.57

Enquiry: Hello, I am looking for reported inhibition with Insulin-like growth factor 1 receptor (Homo sapiens) (UniProt P08069) for `COc1cc(Nc2nccc(Nc3ccc4c(C)n[nH]c4c3)n2)cc(OC)c1OC` . Could you help?
Return: 76.8

Enquiry: Give recorded inhibition with Insulin-like growth factor 1 receptor (Homo sapiens) (UniProt P08069) for the following compound: `[O-][S+]1CCN(Cc2ccc(-c3ccc4ncnc(Nc5ccc(OCc6cccc(F)c6)c(Cl)c5)c4c3)o2)CC1`
Return: 5.73

Enquiry: Hi! What's the reported inhibition for `COC(=O)Nc1nc2ccc(Oc3ccc(NC(=O)Nc4cccc(Cl)c4)cc3)cc2[nH]1` on Insulin-like growth factor 1 receptor (Homo sapiens) (UniProt P08069)?
Return: 2.1

Enquiry: So what inhibition did `CCn1c(-c2nonc2N)nc2c(C#CC(C)(C)O)ncc(OC3CCNCC3)c21` get with Insulin-like growth factor 1 receptor (Homo sapiens) (UniProt P08069)?
Return: 2.36

Enquiry: Give inhibition (Insulin-like growth factor 1 receptor (Homo sapiens) (UniProt P08069)) of the following compound: `CC(=O)NCc1cccc(C#Cc2cncnc2Nc2ccc(OCc3cccc(F)c3)c(Cl)c2)c1`
Return: 1.07

Enquiry: Request - read-out inhibition | tested on Insulin-like growth factor 1 receptor (Homo sapiens) (UniProt P08069) | compound `NC(=O)c1sc(-n2cnc3ccc(C(F)(F)F)cc32)cc1OCc1ccccc1Br`
Return: 1.19

Enquiry: // lookup inhibition | system=Insulin-like growth factor 1 receptor (Homo sapiens) (UniProt P08069) | key= `Cc1ccc(O)cc1Nc1ccnc2cc(-c3ccccn3)ccc12`
Return: 4.82

Enquiry: I'm curious: which inhibition was measured for `CCN1CCC(CC(=O)Nc2n[nH]c3nnc(-c4cccc(F)c4F)cc23)CC1` tested on Insulin-like growth factor 1 receptor (Homo sapiens) (UniProt P08069)?;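 note: each value is a mean percent inhibition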
Return: 2.99
